targetUnderTest: CDK2 (human) (UniProt P24941)
testSummary: Enzyme Assay
conditionContext: concentration not given here
Hi there, I'd appreciate the recorded inhibition for every entry that follows.
The response must be a number in % with no trailing unit.

Please give the measured inhibition for this molecule: Nc1nc(NC2CCN(C(=O)CCc3c[nH]c4ccccc34)CC2)sc1C(=O)c1c(F)cccc1F
56

Next molecule: CC/C=C/CC(=O)N1CCC(Nc2nc(N)c(C(=O)c3c(F)cccc3F)s2)CC1
46

Okay, and Cc1ccc(C)c(OCC(=O)N2CCC(Nc3nc(N)c(C(=O)c4c(F)cccc4F)s3)CC2)c1 ?
26

Try the molecule Nc1nc(NC2CCN(C(=O)CCc3cccc(O)c3)CC2)sc1C(=O)c1c(F)cccc1F
40

Now the molecule COc1ccc(C(=O)N2CCC(Nc3nc(N)c(C(=O)c4c(F)cccc4F)s3)CC2)cc1Cl
47

For COC(=O)CCC(=O)N1CCC(Nc2nc(N)c(C(=O)c3c(F)cccc3F)s2)CC1 then?
12

Here is the next molecule: CC(=O)OC(C(=O)N1CCC(Nc2nc(N)c(C(=O)c3c(F)cccc3F)s2)CC1)c1ccccc1 (centres undefined)
-5

Same thing, different molecule: CCOc1cccc(C(=O)N2CCC(Nc3nc(N)c(C(=O)c4c(F)cccc4F)s3)CC2)c1
75

Now try Nc1nc(NC2CCN(C(=O)c3cccc(F)c3F)CC2)sc1C(=O)c1c(F)cccc1F .
11

And for COc1ccccc1/C=C\C(=O)N1CCC(Nc2nc(N)c(C(=O)c3c(F)cccc3F)s2)CC1 ?
70

Now give it for COc1ccc(C(=O)N2CCC(Nc3nc(N)c(C(=O)c4c(F)cccc4F)s3)CC2)cc1OC too.
-23

Next molecule up: Nc1nc(NC2CCN(C(=O)/C(F)=C/c3ccccc3)CC2)sc1C(=O)c1c(F)cccc1F
64

Next molecule up: C[C@H](CC(=O)N1CCC(Nc2nc(N)c(C(=O)c3c(F)cccc3F)s2)CC1)c1ccccc1
49

Now give it for CC(=O)OCC(=O)N1CCC(Nc2nc(N)c(C(=O)c3c(F)cccc3F)s2)CC1 too.
25

Consider next the molecule Nc1nc(NC2CCN(C(=O)COc3cccc(C=O)c3)CC2)sc1C(=O)c1c(F)cccc1F in the same way.
38

What do you have for CCCCC(=O)N1CCC(Nc2nc(N)c(C(=O)c3c(F)cccc3F)s2)CC1 ?
48

Same for Nc1nc(NC2CCN(C(=O)c3cccc4ccccc34)CC2)sc1C(=O)c1c(F)cccc1F
55

Please do the same for CCCCC(O)C(=O)N1CCC(Nc2nc(N)c(C(=O)c3c(F)cccc3F)s2)CC1 (centres undefined) as well.
16

Next: CC1CC1C(=O)N1CCC(Nc2nc(N)c(C(=O)c3c(F)cccc3F)s2)CC1 (centres undefined)
-10

* * *

targetUnderTest: CDK2 (human)
testSummary: Enzyme Assay
conditionContext: concentration not given here
parameter: inhibition (%)
Give a bare numeral; the unit % is implied.

What does the data say about its inhibition? Entry: CC(=O)C(O)(C(=O)N1CCC(Nc2nc(N)c(C(=O)c3c(F)cccc3F)s2)CC1)c1ccccc1 (centres undefined)
26

Let us now turn to Nc1nc(NC2CCN(C(=O)c3cc4cc(F)ccc4[nH]3)CC2)sc1C(=O)c1c(F)cccc1F
36

CC1(C)C2CC[C@@]1(CS(=O)(=O)N1CCC(Nc3nc(N)c(C(=O)c4c(F)cccc4F)s3)CC1)C(=O)C2 , same question.
-34

Record: CCOc1cccc(CC(=O)N2CCC(Nc3nc(N)c(C(=O)c4c(F)cccc4F)s3)CC2)c1
77

Moving on to the next molecule: Nc1nc(NC2CCN(C(=O)CCO)CC2)sc1C(=O)c1c(F)cccc1F
39

Continue with CCC(O)(CC)C(=O)N1CCC(Nc2nc(N)c(C(=O)c3c(F)cccc3F)s2)CC1
17

Do the same for Nc1nc(NC2CCN(C(=O)Cc3c[nH]c4ccc(F)cc34)CC2)sc1C(=O)c1c(F)cccc1F please
66

What do we get for Cc1ccccc1CC(=O)N1CCC(Nc2nc(N)c(C(=O)c3c(F)cccc3F)s2)CC1 ?
56

# iterate: CC(C)c1ccc(CC(=O)N2CCC(Nc3nc(N)c(C(=O)c4c(F)cccc4F)s3)CC2)cc1
85

* * *

targetUnderTest: CDK2 (human) (UniProt P24941)
testSummary: Enzyme Assay
conditionContext: concentration not given here
I'd be grateful if you could share measured inhibition for these entries.
Report only the number, with the unit % understood.

Record CC(C)(C)c1ccc(CC(=O)N2CCC(Nc3nc(N)c(C(=O)c4c(F)cccc4F)s3)CC2)cc1 : what is its inhibition with CDK2 (human) (UniProt P24941)?
55

Same again, this time with Nc1nc(NC2CCN(C(=O)c3ccc4[nH]nnc4c3)CC2)sc1C(=O)c1c(F)cccc1F
49

Cool, now CC(=O)c1ccc(O)c(C(=O)N2CCC(Nc3nc(N)c(C(=O)c4c(F)cccc4F)s3)CC2)c1
9

Follow-up entry: Nc1nc(NC2CCN(C(=O)[C@@H](O)Cc3ccccc3)CC2)sc1C(=O)c1c(F)cccc1F
61

Try this compound too: Nc1nc(NC2CCN(S(=O)(=O)c3cccc4cccnc34)CC2)sc1C(=O)c1c(F)cccc1F
-32

What about this compound? CC(C)CCC(=O)N1CCC(Nc2nc(N)c(C(=O)c3c(F)cccc3F)s2)CC1
27

CC(SCc1ccccc1)C(=O)N1CCC(Nc2nc(N)c(C(=O)c3c(F)cccc3F)s2)CC1 (stereo not drawn) , same question.
50

Next compound up: COc1ccc(OCC(=O)N2CCC(Nc3nc(N)c(C(=O)c4c(F)cccc4F)s3)CC2)cc1
74

Also, CCSc1ncccc1C(=O)N1CCC(Nc2nc(N)c(C(=O)c3c(F)cccc3F)s2)CC1 please.
38

Now try CCOc1ccccc1CC(=O)N1CCC(Nc2nc(N)c(C(=O)c3c(F)cccc3F)s2)CC1 .
71

Next compound: CCc1ccc2[nH]c(C(=O)N3CCC(Nc4nc(N)c(C(=O)c5c(F)cccc5F)s4)CC3)cc2c1
74

Subsequent entry: COC(=O)CCCC(=O)N1CCC(Nc2nc(N)c(C(=O)c3c(F)cccc3F)s2)CC1
45

// next record Cc1ccc(OCC(=O)N2CCC(Nc3nc(N)c(C(=O)c4c(F)cccc4F)s3)CC2)cc1C
52

Now consider Cc1ccc(CCCC(=O)N2CCC(Nc3nc(N)c(C(=O)c4c(F)cccc4F)s3)CC2)c(C)c1 and answer again.
35

Next record, please: Nc1nc(NC2CCN(C(=O)/C=C/c3ccc(F)c(F)c3)CC2)sc1C(=O)c1c(F)cccc1F
61

Queued: Nc1nc(NC2CCN(C(=O)/C=C/c3cc(F)ccc3F)CC2)sc1C(=O)c1c(F)cccc1F
81

Can you handle CCC(C)(O)CC(=O)N1CCC(Nc2nc(N)c(C(=O)c3c(F)cccc3F)s2)CC1 (stereo not drawn) next?
47

# repeat for Nc1nc(NC2CCN(C(=O)/C=C/c3ccc(O)cc3)CC2)sc1C(=O)c1c(F)cccc1F
66

* * *

targetUnderTest: CDK2 (human) (UniProt P24941)
testSummary: Enzyme Assay
conditionContext: concentration not given here
Exercise: state measured inhibition for each of the compounds provided.
Response body: numeric value in %, unit text excluded.

Checklist item: inhibition tested on CDK2 (human) (UniProt P24941), entry Cc1ccc(F)cc1C(=O)N1CCC(Nc2nc(N)c(C(=O)c3c(F)cccc3F)s2)CC1 , value?
52

Next: COc1ccc(C(=O)N2CCC(Nc3nc(N)c(C(=O)c4c(F)cccc4F)s3)CC2)cc1F
72

And then Cc1ccc(/C=C/C(=O)N2CCC(Nc3nc(N)c(C(=O)c4c(F)cccc4F)s3)CC2)cc1C , what is it?
52

What do we get for CCOc1ccccc1/C=C/C(=O)N1CCC(Nc2nc(N)c(C(=O)c3c(F)cccc3F)s2)CC1 ?
80

Another compound: CC(=O)CCCCC(=O)N1CCC(Nc2nc(N)c(C(=O)c3c(F)cccc3F)s2)CC1
49

What do you have for CCCCOc1ccc(C(C)(C)CC(C)(C)C)cc1S(=O)(=O)N1CCC(Nc2nc(N)c(C(=O)c3c(F)cccc3F)s2)CC1 ?
-28

Then what about the compound CC(Oc1ccc(O)cc1)C(=O)N1CCC(Nc2nc(N)c(C(=O)c3c(F)cccc3F)s2)CC1 (configuration not stated) ?
18

Same read-out for Nc1nc(NC2CCN(C(=O)/C=C/c3ccccc3Cl)CC2)sc1C(=O)c1c(F)cccc1F ?
83

For CN(C)c1ccc(/C=C/C(=O)N2CCC(Nc3nc(N)c(C(=O)c4c(F)cccc4F)s3)CC2)cc1 then?
75

Queued: C/C=C/CCC(=O)N1CCC(Nc2nc(N)c(C(=O)c3c(F)cccc3F)s2)CC1
71

One more compound: CCCCOCC(=O)N1CCC(Nc2nc(N)c(C(=O)c3c(F)cccc3F)s2)CC1
79

Entry to check: Nc1nc(NC2CCN(C(=O)c3ccnc4ccccc34)CC2)sc1C(=O)c1c(F)cccc1F
10
